Below, each entry is listed with its recorded hGCGR pEC50 (cAMP).
# measured_target: human glucagon receptor (GCGR) (human, UniProt P47871 26-477)
# experimental_details: cell-based or functional assay
Where no end group is shown, it is not given here. [ ]: non-standard residue; d: D form. Aib = CC(C)(N)C(=O)O
Give just the number in pEC50; leave the unit off.

YSHGTFTSDYSKYLDSARAQEFVKHLEDEPKSKSPPPS [Compound A84] = 9.4

// lookup hGCGR pEC50 (cAMP) for YSQGTFTSDYSKYLDSARAQEFVKWLEDEPKSKAPPPS [Compound A82]
11

// lookup hGCGR pEC50 (cAMP) for YSQGTFTSDYSKYLD[Aib]KRAQEFV[Aib]WLEDEPSSGKPPPS [Compound A86]
13.3

// lookup hGCGR pEC50 (cAMP) for YSQGTFTSDYSKYLDSARAQEFVKWLEDEPKSKSPPPS [Compound A81]
11

// lookup hGCGR pEC50 (cAMP) for YSHGTFTSDYSKYLDSARAQEFTKWLEDEPKSKSPPPS [Compound A83]
10.2

// lookup hGCGR pEC50 (cAMP) for YSQGTFTSDYSKYLD[Aib]KAAQEFV[Aib]WLEDEPSSGAPPPS [Compound A95]
13.3

Cited source for all entries: patent US20180009871A1
